Measured Incorporation efficiency (wt %) by item
# target-system: FTH ferritin (Homo sapiens, UniProt P02794)
# Construct: made in house; host or cells: Escherichia coli BL21 (DE3), plasmid pET20-FTH
# Sequence (P02794 whole entry): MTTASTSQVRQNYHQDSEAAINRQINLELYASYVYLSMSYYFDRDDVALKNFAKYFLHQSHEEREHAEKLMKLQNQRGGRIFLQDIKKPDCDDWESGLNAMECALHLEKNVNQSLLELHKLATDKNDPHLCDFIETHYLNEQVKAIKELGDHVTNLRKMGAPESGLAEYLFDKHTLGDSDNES
# assay-comment: one-step process incorporation of small molecule agents into FTH ferritin
# Assay type: physicochemical
# cond: pH 8, 40° C., 60 min
measured-property: Incorporation efficiency (wt %)

# compound, measured-property, numeric-readout
measured = [
    ("NC(=O)c1cccnc1 [Nicotinamide]", "Incorporation efficiency (wt %)", 0.3),
    ("CN(C)C(=N)NC(=N)N", "Incorporation efficiency (wt %)", 0.1),
    ("CC(C)(C)NCC(O)c1cc(O)cc(O)c1 (centres unmarked)", "Incorporation efficiency (wt %)", 0.9),
    ("Nc1cc(N2CCCCC2)nc(N)[n+]1[O-]", "Incorporation efficiency (wt %)", 0.5),
    ("Cc1ncc(C[n+]2csc(CCO)c2C)c(N)n1", "Incorporation efficiency (wt %)", 0.9),
]

----------
# target-system: FTH ferritin (Homo sapiens, UniProt P02794)
# Construct: made in house; host or cells: Escherichia coli BL21 (DE3), plasmid pET20-FTH
# assay-comment: one-step process incorporation of small molecule agents into FTH ferritin
# Assay type: physicochemical
# cond: pH 4, 40° C., 60 min
measured-property: Number of agent incorporated

# compound, numeric-readout
records = [
    ("Nc1cc(N2CCCCC2)nc(N)[n+]1[O-]", 8.3),
    ("NC(N)=Nc1nc(CSCCC(N)=NS(N)(=O)=O)cs1", 0.0),
    ("CC(C)(C)NCC(O)c1cc(O)cc(O)c1 (stereo not shown)", 0.0),
    ("Cc1ncc(C[n+]2csc(CCO)c2C)c(N)n1", 11.6),
    ("CN(C)C(=N)NC(=N)N", 0.0),
    ("NC(=O)c1cccnc1 [Nicotinamide]", 15.6),
    ("Cc1cc2nc3c(=O)[nH]c(=O)nc-3n(C[C@H](O)[C@H](O)[C@H](O)CO)c2cc1C", 6.4),
]

----------
# target-system: FTH ferritin (Homo sapiens, UniProt P02794)
# Construct: made in house; host or cells: Escherichia coli BL21 (DE3), plasmid pET20-FTH
# assay-comment: one-step process incorporation of small molecule agents into FTH ferritin
# Assay type: physicochemical
# cond: pH 10, 40° C., 60 min
Listing of entries alongside the reported Number of agent incorporated.

# compound, Number of agent incorporated
rows = [
    ("Nc1cc(N2CCCCC2)nc(N)[n+]1[O-] [Minoxidil]", 4.3),
    ("NC(N)=Nc1nc(CSCCC(N)=NS(N)(=O)=O)cs1 [Famotidine]", 5.1),
    ("CN(C)C(=N)NC(=N)N [Metformin]", 1.8),
    ("Cc1cc2nc3c(=O)[nH]c(=O)nc-3n(C[C@H](O)[C@H](O)[C@H](O)CO)c2cc1C [Riboflavin]", 7.7),
    ("CC(C)(C)NCC(O)c1cc(O)cc(O)c1 (stereo not shown) [Terbutaline]", 27.1),
    ("NC(=O)c1cccnc1 [Nicotinamide]", 7.6),
    ("Cc1ncc(C[n+]2csc(CCO)c2C)c(N)n1 [Thiamine]", 13.6),
]

----------
# target-system: FTH ferritin (Homo sapiens, UniProt P02794)
# Construct: made in house; host or cells: Escherichia coli BL21 (DE3), plasmid pET20-FTH
# assay-comment: one-step process incorporation of small molecule agents into FTH ferritin
# Assay type: physicochemical
# cond: pH 6, 40° C., 60 min

# compound, result-units, Incorporation efficiency (wt %)
records = [
    ("Nc1c(/N=N/c2ccc(-c3ccc(/N=N/c4cc(S(=O)(=O)[O-])c5ccccc5c4N)cc3)cc2)cc(S(=O)(=O)[O-])c2ccccc12.[Na+].[Na+]", "wt %", 0.2),
    ("Nc1cc(N2CCCCC2)nc(N)[n+]1[O-]", "wt %", 0.8),
    ("NC(=O)c1cccnc1 [Nicotinamide]", "wt %", 0.2),
    ("Cc1ncc(C[n+]2csc(CCO)c2C)c(N)n1", "wt %", 0.9),
    ("CC(C)(C)NCC(O)c1cc(O)cc(O)c1 (stereo not drawn)", "wt %", 0.9),
    ("CN(C)C(=N)NC(=N)N", "wt %", 0.0),
]

----------
# target-system: FTH ferritin (Homo sapiens)
# Construct: made in house; host or cells: Escherichia coli BL21 (DE3), plasmid pET20-FTH
# assay-comment: one-step process incorporation of small molecule agents into FTH ferritin
# Type: physicochemical
# cond: pH 6, 40° C., 60 min
measured-property: Number of agent incorporated

# molecule, target-system, measured-property, numeric-readout
data = [
    ("Nc1c(/N=N/c2ccc(-c3ccc(/N=N/c4cc(S(=O)(=O)[O-])c5ccccc5c4N)cc3)cc2)cc(S(=O)(=O)[O-])c2ccccc12.[Na+].[Na+]", "FTH ferritin (Homo sapiens)", "Number of agent incorporated", 1.7),
    ("Nc1cc(N2CCCCC2)nc(N)[n+]1[O-]", "FTH ferritin (Homo sapiens)", "Number of agent incorporated", 20.0),
    ("Cc1ncc(C[n+]2csc(CCO)c2C)c(N)n1", "FTH ferritin (Homo sapiens)", "Number of agent incorporated", 13.9),
    ("NC(N)=Nc1nc(CSCCC(N)=NS(N)(=O)=O)cs1", "FTH ferritin (Homo sapiens)", "Number of agent incorporated", 15.1),
    ("CN(C)C(=N)NC(=N)N", "FTH ferritin (Homo sapiens)", "Number of agent incorporated", 0.2),
    ("Cc1cc2nc3c(=O)[nH]c(=O)nc-3n(C[C@H](O)[C@H](O)[C@H](O)CO)c2cc1C", "FTH ferritin (Homo sapiens)", "Number of agent incorporated", 6.5),
    ("NC(=O)c1cccnc1 [Nicotinamide]", "FTH ferritin (Homo sapiens)", "Number of agent incorporated", 6.8),
    ("CC(C)(C)NCC(O)c1cc(O)cc(O)c1 (centres unmarked)", "FTH ferritin (Homo sapiens)", "Number of agent incorporated", 19.5),
]

Source: patent US20210253651A1
